- CONDITIONS: 353.15 K; 101.33 kPa; Liquid; Vibrating tube method
± gives the expanded uncertainty stated by the source.
# mass density per record follows
In your response, the unit should come after the numeric value.

CCCCCCn1cc[n+](C)c1.F[B-](F)(F)F [1-hexyl-3-methylimidazolium tetrafluoroborate]
1107.6 ± 3.3 kg/m3

Reported mass density, molecule CCn1cc[n+](C)c1.F[P-](F)(F)(F)(F)F [1-ethyl-3-methylimidazolium hexafluorophosphate] : ____
1421.8 ± 13 kg/m3

Quick one: mass density for CCn1cc[n+](C)c1.F[B-](F)(F)F [1-ethyl-3-methylimidazolium tetrafluoroborate] ?
1239.3 ± 4.5 kg/m3

Report mass density for CCCCCCCC[n+]1ccn(C)c1.F[P-](F)(F)(F)(F)F [1-octyl-3-methylimidazolium hexafluorophosphate] please.
1195.2 ± 3.7 kg/m3

# query: mass density of entry CCCCCCn1cc[n+](C)c1.F[P-](F)(F)(F)(F)F [1-hexyl-3-methylimidazolium hexafluorophosphate]
1249.8 ± 3.9 kg/m3
